assay: NF-kB reporter blockers in CF airway cells – cell-based, GFP fluorescence, uHTS, primary screen (AID 588850); conditions: KKLEB NF-kB-GFP reporter, PAF-induced, GFP fluorescence overnight; at 5 µM;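 further: PAF is a Pseudomonas aeruginosa culture filtrate used as stimulus; plate controls were PAF-stimulated DMSO wells for no effect and unstimulated DMSO wells for full effect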
Screen size: about 360,000 compounds; about 3,100 (0.86%) were called active.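 How the source made its calls: active means at least 50% inhibition at 5 µM, scaled per plate between neutral and stimulator controls; inactive means the rest.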 The sample holds actives, similar compounds and a random draw of the others, so the mix is not that of the screen.
Classes used: true (1) = active, false (0) = inactive

- CC(C)C[C@H]1CNC(=S)N1C[C@H]1CCCN1C[C@H](Cc1ccc(O)cc1)N1C[C@H](Cc2ccc(O)cc2)N(CC2CCCCC2)C1=S: true (1)
- CCOc1ccc(CCN2C(=S)N([C@@H](CC(C)C)CN3CCC[C@@H]3CN3C(=S)NC[C@@H]3Cc3ccc(O)cc3)C[C@@H]2CC(C)C)cc1: false (0)
- COc1ccc(N2CCN(S(=O)(=O)CCNC(=O)C34CC5CC(CC(C5)C3)C4)CC2)cc1: false (0)
- CCOc1ccc(CCN2C(=S)N([C@@H](CC(C)C)CN3CCC[C@@H]3CN3C(=S)NC[C@@H]3Cc3ccc(O)cc3)C[C@@H]2Cc2ccc(O)cc2)cc1: false (0)
- O=C(OC12CC3CC(CC(C3)C1)C2)c1ccc(NCc2cc(O)ccc2O)cc1: true (1)
- CCC(=O)N1CCC(C)(C(=O)Nc2cc(OC)c(OC)c(OC)c2)C1 (stereo not drawn): false (0)
- CCCCC(=O)Nc1c2c(nn1-c1ccc([N+](=O)[O-])cc1)CS(=O)(=O)C2: false (0)
- O=C(Cc1ncc(C(F)(F)F)cc1Cl)Nc1cccc(Br)c1: false (0)
- CCOC(=O)N1CCN(C(=O)c2ccccc2SCC(=O)NCC2CCCCC2)CC1: false (0)
- O=C1/C(=C\c2ccc([N+](=O)[O-])cc2)CS(=O)(=O)C/C1=C/c1ccc([N+](=O)[O-])cc1: true (1)
- Cc1ccc(/C=N/NC(=O)CSc2nc3ccccc3o2)cc1: false (0)
- COCCN(C(=O)CCC(=O)Nc1nccs1)C(C(=O)NCCC(C)C)c1ccc(F)cc1 (stereo not drawn): false (0)
- Cc1ccc(C)c(NC(CC(=O)c2ccccc2)C(=O)OCC(=O)c2cccs2)c1 (stereo not drawn): false (0)
- Cc1ccc(COc2ccc(/C=N/NC(=O)CN3CCCCC3)cc2)cc1: false (0)
- NCCCCC(C(=O)O)N(C(=O)OCc1ccccc1)C(=O)OCc1ccccc1 (stereo not drawn): false (0)
- CC1(C)O[C@@H]2CC3C4C[C@H](F)C5=CC(=O)C=CC5(C)C4C(O)CC3(C)[C@]2(C(=O)CO)O1 (stereo partly drawn): true (1)
- CN(CC(=O)Nc1ccc(Cl)c(C(F)(F)F)c1)C(=O)CCC(=O)c1ccccc1: false (0)
- CCOC(=O)N1CCN(S(=O)(=O)c2ccc3c(c2)C(C)C(=O)N3)CC1 (stereo not drawn): false (0)

====

assay: NF-kB reporter blockers in CF airway cells – cell-based, GFP fluorescence, uHTS, primary screen (AID 588850); settings: KKLEB NF-kB-GFP reporter, PAF-induced, GFP fluorescence overnight; at 5 µM; stronger effect = higher value;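 further: PAF is a Pseudomonas aeruginosa culture filtrate used as stimulus; plate controls were PAF-stimulated DMSO wells for no effect and unstimulated DMSO wells for full effect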
Out of some 360,000 compounds screened, about 3,100 (0.86%) were called active. The sample as a whole holds a higher share of actives than the screen did.
Below, each of the molecules is paired with its reported inhibition value.
observedProperty: inhibition (%)

* CCCCCCCCc1c(O)nc(-n2[nH]c(C)c(CCO)c2=O)[nH]c1=O | 12.1
* O=S(=O)(Nc1ccc(OC(F)(F)F)cc1)c1cccc2nonc12 | -3.9
* NC(=O)CSc1nnc(-c2cccc(S(=O)(=O)N3CCOCC3)c2)o1 | -5.1
* Cc1cc(OCCCC(=O)Nc2cc(S(=O)(=O)N3CCOCC3)ccc2N2CCOCC2)ccc1Cl | 7.1
* N#CCCn1ncc2ccccc21 | -11.2
* C[C@@H]1C[C@@H]2O[C@H]2/C=C\C=C\C(=O)Cc2c(Cl)c(O)cc(O)c2C(=O)O1 | 60.3
* CC(=O)c1ccc(NC(=O)C(C)N(C)CC(=O)Nc2ccccc2Cl)cc1 (stereo unspecified) | 2.6
* Cc1cc(OC(=O)c2ccccc2)c([N+](=O)[O-])c(=O)[nH]1 | 4.2
* NC1=NOC(=O)C1C1CCCCC1 (stereo unspecified) | 25.2
* O=C(COc1ccc(-n2cnnn2)cc1)Nc1ccccc1Cl | -3.5
* O=C(Nc1ccccc1Cl)/C(Cl)=C(\Cl)S(=O)c1ccccc1 (stereo unspecified) | 82.8
